- Condition summary: 353.15 K; 101.33 kPa; Liquid; Capillary tube (Ostwald / Ubbelohde) method
± gives the expanded uncertainty stated by the source.
Property name: viscosity
Quote the value and follow it with the unit of measurement.

The examples below pair each entry with its known result.
>  <Compound>
CCn1cc[n+](C)c1.N#CN=C=[N-] [1-ethyl-3-methylimidazolium dicyanamide]

>  <Property name>
viscosity

>  <Result>
4.55 ± 0.12 mPa·s

$$$$
>  <Compound>
CCn1cc[n+](C)c1.F[B-](F)(F)F [1-ethyl-3-methylimidazolium tetrafluoroborate]

>  <Property name>
viscosity

>  <Result>
8.23 ± 0.22 mPa·s

$$$$
>  <Compound>
CCCCn1cc[n+](C)c1.F[B-](F)(F)F [1-butyl-3-methylimidazolium tetrafluoroborate]

>  <Property name>
viscosity

>  <Result>
14.06 ± 0.38 mPa·s

$$$$

Now consider a different compound.
# query: viscosity of entry "CCn1cc[n+](C)c1.O=S(=O)([N-]S(=O)(=O)C(F)(F)F)C(F)(F)F" 7.83 ± 0.21 mPa·s

====

- Condition summary: 313.15 K; 101.33 kPa; Liquid; Vibrating tube method
Numbers after ± are expanded uncertainties.
Property name: mass density

Please look up its mass density: "CCn1cc[n+](C)c1.O=S(=O)([N-]S(=O)(=O)C(F)(F)F)C(F)(F)F" 1504.3 ± 4.4 kg/m3

Given the entry CCn1cc[n+](C)c1.F[B-](F)(F)F [1-ethyl-3-methylimidazolium tetrafluoroborate] , report its measured mass density. 1277.5 ± 3.2 kg/m3

What value of measured mass density is listed for CCCCn1cc[n+](C)c1.F[B-](F)(F)F [1-butyl-3-methylimidazolium tetrafluoroborate] ? 1191.6 ± 2.7 kg/m3

# get_value(readout='mass density', item= CCn1cc[n+](C)c1.N#CN=C=[N-] [1-ethyl-3-methylimidazolium dicyanamide] ) 1091 ± 2.3 kg/m3

====

Measured electrical conductivity values are reported for all entries that follow.
- Condition summary: 333.15 K; 101.33 kPa; Liquid; Symmetrical Wheatstone bridge
Please state the figure in S/m; there is no need to write the unit.

Some solved cases for reference:
>  <Compound>
CCCCn1cc[n+](C)c1.F[B-](F)(F)F [1-butyl-3-methylimidazolium tetrafluoroborate]

>  <electrical conductivity / S/m>
1.36

$$$$
>  <Compound>
CCn1cc[n+](C)c1.F[B-](F)(F)F [1-ethyl-3-methylimidazolium tetrafluoroborate]

>  <electrical conductivity / S/m>
3.97

$$$$
>  <Compound>
CCn1cc[n+](C)c1.O=S(=O)([N-]S(=O)(=O)C(F)(F)F)C(F)(F)F

>  <electrical conductivity / S/m>
2.22

$$$$

What does the record list as electrical conductivity for CCn1cc[n+](C)c1.N#CN=C=[N-] [1-ethyl-3-methylimidazolium dicyanamide] ? 6.24

====

Documented electrical conductivity across a set of compounds
- Condition summary: 298.15 K; 101.33 kPa; Liquid; Symmetrical Wheatstone bridge
Quick reminder: number only, in S/m, skip the unit.

>  <Compound>
CCn1cc[n+](C)c1.N#CN=C=[N-] [1-ethyl-3-methylimidazolium dicyanamide]

>  <electrical conductivity / S/m>
2.93

$$$$
>  <Compound>
CCCCn1cc[n+](C)c1.F[B-](F)(F)F [1-butyl-3-methylimidazolium tetrafluoroborate]

>  <electrical conductivity / S/m>
0.359

$$$$
>  <Compound>
CCn1cc[n+](C)c1.O=S(=O)([N-]S(=O)(=O)C(F)(F)F)C(F)(F)F

>  <electrical conductivity / S/m>
0.921

$$$$

What value of measured electrical conductivity is listed for CCn1cc[n+](C)c1.F[B-](F)(F)F [1-ethyl-3-methylimidazolium tetrafluoroborate] ? 1.57

Sourced from the NIST ThermoML archive (doi:10.1021/je900878j)
